Target: Enoyl-[acyl-carrier-protein] reductase [NADH] (Mycobacterium tuberculosis) (UniProt P9WGR1)
Sequence (whole entry): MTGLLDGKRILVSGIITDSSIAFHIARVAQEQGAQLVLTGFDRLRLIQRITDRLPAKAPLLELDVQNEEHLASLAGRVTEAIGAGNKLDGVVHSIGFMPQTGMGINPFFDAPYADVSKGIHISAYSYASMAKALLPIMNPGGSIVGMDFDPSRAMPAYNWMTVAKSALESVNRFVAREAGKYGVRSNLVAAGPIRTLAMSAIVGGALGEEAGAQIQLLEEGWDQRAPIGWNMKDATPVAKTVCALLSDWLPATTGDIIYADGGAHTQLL
Test: Inhibition of InhA in Mycobacterium tuberculosis H37Ra assessed as reduction in mycolic acids synthesis by measuring FAME level at 200 uM incubated for 48 hrs using [14C]acetate by TLC based metabolic labeling assay relative to control
Active and inactive are the calls of the source. The rule behind the calls is not given here.
Classes used: active, inactive

# structure-smiles-string, qualitative-label
records = [
    ("NCc1cccc(NS(=O)(=O)c2cc3ccccc3s2)c1", "inactive"),
    ("Cc1c(S(=O)(=O)Nc2cccc(CN)c2)sc2ccc(Cl)cc12", "inactive"),
    ("NCc1cccc(NS(=O)(=O)/C=C/c2cccc(C(F)(F)F)c2)c1", "active"),
    ("Cc1c(S(=O)(=O)Nc2cccc(CN)c2)sc2ccc(F)cc12", "inactive"),
    ("NCc1cccc(NS(=O)(=O)c2cc3ccccc3o2)c1", "inactive"),
    ("NCc1ccc(NS(=O)(=O)/C=C/c2cccc(C(F)(F)F)c2)cc1", "inactive"),
]

----------
Molecular target: Enoyl-[acyl-carrier-protein] reductase [NADH] (Mycobacterium tuberculosis)
Experiment: Binding affinity to hexahistidine-SUMO tagged Mycobacterium tuberculosis InhA expressed in Escherichia coli BL21(DE3) at 1 mM in presence of 0.5 mM NAD+ by NMR spectroscopy
Calls of active or inactive are those of the source. The rule behind the calls is not given here.

# structure-smiles-string, target-of-assay, Activity
rows = [
    ("O=C(O)c1ccccc1-n1cccn1", "Enoyl-[acyl-carrier-protein] reductase [NADH] (Mycobacterium tuberculosis)", "Active"),
    ("O=C(O)c1cc2ccccc2cc1O", "Enoyl-[acyl-carrier-protein] reductase [NADH] (Mycobacterium tuberculosis)", "Active"),
    ("O=C(O)/C=C/c1cccc(C(F)(F)F)c1", "Enoyl-[acyl-carrier-protein] reductase [NADH] (Mycobacterium tuberculosis)", "Active"),
    ("O=C(O)c1ccccc1C(=O)c1ccc(Cl)c([N+](=O)[O-])c1", "Enoyl-[acyl-carrier-protein] reductase [NADH] (Mycobacterium tuberculosis)", "Active"),
    ("O=C(O)CCc1cccc(Cl)c1", "Enoyl-[acyl-carrier-protein] reductase [NADH] (Mycobacterium tuberculosis)", "Active"),
]

----------
Biological target: Enoyl-[acyl-carrier-protein] reductase [NADH] (Mycobacterium tuberculosis)
Assay: Inhibition of InhA in Mycobacterium tuberculosis H37Ra assessed as accumulation of trehalose monomycolates at 200 uM incubated for 48 hrs using [14C]acetate by TLC based metabolic labeling assay relative to control
The source made the active and inactive calls. The calls are words filed in the database; no cut-off is given here.
Outcome codes: active, inactive

# structure-smiles-string, qualitative-label
measured = [
    ("Cc1c(S(=O)(=O)Nc2cccc(CN)c2)sc2ccc(Cl)cc12", "inactive"),
    ("NCc1cccc(NS(=O)(=O)c2cc3ccccc3o2)c1", "inactive"),
    ("NCc1ccc(NS(=O)(=O)/C=C/c2cccc(C(F)(F)F)c2)cc1", "inactive"),
    ("Cc1c(S(=O)(=O)Nc2cccc(CN)c2)sc2ccc(F)cc12", "inactive"),
    ("NCc1cccc(NS(=O)(=O)c2cc3ccccc3s2)c1", "inactive"),
    ("NCc1cccc(NS(=O)(=O)/C=C/c2cccc(C(F)(F)F)c2)c1", "active"),
]

Hey, just so you know, these numbers are from ChEMBL document CHEMBL4402593.
